Target: T1, VEGFR-3-Fc (UniProt P35916 25-328)
T1 construct: domain: first three Ig domains; conditioned supernatant of 293T cells; also called VEGFR-3-Fc fusion protein; not shown: Fc fragment of the pIg vector
T1 sequence (looked up): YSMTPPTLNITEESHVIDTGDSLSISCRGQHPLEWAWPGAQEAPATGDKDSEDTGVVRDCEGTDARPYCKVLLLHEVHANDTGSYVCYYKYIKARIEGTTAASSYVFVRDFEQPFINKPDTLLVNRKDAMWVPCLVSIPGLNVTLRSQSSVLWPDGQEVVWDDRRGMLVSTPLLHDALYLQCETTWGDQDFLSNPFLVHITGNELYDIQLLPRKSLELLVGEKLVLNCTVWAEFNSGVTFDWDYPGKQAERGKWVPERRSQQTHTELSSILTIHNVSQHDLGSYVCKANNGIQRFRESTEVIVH
Test: receptor-Fc IP
MEASURED_PARAMETER: binding result

Worked examples follow.
BINDER | READOUT_VALUE
61-15 (ligand) GQNHHEVVKFMDVYQRSYCHPREVCIDVGKEYPDEIEYIFKPSCVPLMRCGGCCNSEGLQCVPTEESNITMQIMRITVPLSQGPKPVTISFANHTSCRCMSKLD | no binding
51-2 (ligand) AHYNTEILKSIDNEWRKTQCMPIETLVDIFQEYPDEIEYIFKPSCVPLMRCGGCCNDEGLECMNTSTSYLSKTLFEIKPHQGQHIGEMSFLQHNKCECRPKKD | no binding
24-7 (ligand) AHYNTEILKSIDNEWRKTQCMPREVCIDVGKEFGVATNTFFKPSCVPLMRCGGCCNSEGLQCVPTEESNITMQIMRIKPHQGQHIGEMSFANHTSCRCMSKLD | no binding
33-14 (ligand) GQNHHEVVKSIDNEWRKTQCMPIETLVDIFQEYPDEIEYIFKPPCVSVYRCGGCCNDEGLECMNTSTSYLSKTLFEITVPLSQGPKPVTISFANHTSCRCMSKLD | no binding
74-15 (ligand) GQNHHEVVKSIDNEWRKTQCMPREVCIDVGKEFGVATNTFFKPSCVPLMRCGGCCNSEGLQCVPTEESNITMQIMRITVPLSQGPKPVTISFANHTSCRCMSKLD | no binding
32-11 (ligand) GQNHHEVVKSIDNEWRKTQCMPIETLVDIFQEFGVATNTFFKPPCVSVYRCGGCCNSEGLQCVPTEESNITMQIMRITVPLSQGPKPVTISFLQHNKCECRPKKD | binds
21-13 (ligand) AHYNTEILKSIDNEWRKTQCMPREVCIDVGKEYPDEIEYIFKPSCVPLMRCGGCCNDEGLECVPTEESNITMQIMRITVPLSQGPKPVTISFANHTSCRCMSKLD | no binding
74-9 (ligand) GQNHHEVVKSIDNEWRKTQCMPREVCIDVGKEFGVATNTFFKPSCVPLMRCGGCCNDEGLECVPTEESNITMQIMRITVPLSQGPKPVTISFLQHNKCECRPKKD | no binding

[Q] What value of measured binding result is listed for 74-3 (ligand) GQNHHEVVKSIDNEWRKTQCMPREVCIDVGKEFGVATNTFFKPSCVPLMRCGGCCNSEGLQCVPTEESNITMQIMRIKPHQGQHIGEMSFLQHNKCECRPKKD ?
[A] no binding

[Q] What value of measured binding result is listed for 23-3 (ligand) AHYNTEILKSIDNEWRKTQCMPREVCIDVGKEYPDEIEYIFKPPCVSVYRCGGCCNSEGLQCVPTEESNITMQIMRIKPHQGQHIGEMSFLQHNKCECRPKKD ?
[A] no binding

[Q] What value of measured binding result is listed for 83-6 (ligand) AHYNTEILKFMDVYQRSYCHPIETLVDIFQEYPDEIEYIFKPPCVSVYRCGGCCNDEGLECMNTSTSYLSKTLFEIKPHQGQHIGEMSFANHTSCRCMSKLD ?
[A] no binding

[Q] What value of measured binding result is listed for 43-7 (ligand) AHYNTEILKFMDVYQRSYCHPREVCIDVGKEYPDEIEYIFKPPCVSVYRCGGCCNSEGLQCVPTEESNITMQIMRIKPHQGQHIGEMSFANHTSCRCMSKLD ?
[A] no binding

[Q] What value of measured binding result is listed for 61-2 (ligand) GQNHHEVVKFMDVYQRSYCHPREVCIDVGKEYPDEIEYIFKPSCVPLMRCGGCCNDEGLECMNTSTSYLSKTLFEIKPHQGQHIGEMSFLQHNKCECRPKKD ?
[A] no binding

[Q] What value of measured binding result is listed for 21-11 (ligand) AHYNTEILKSIDNEWRKTQCMPREVCIDVGKEYPDEIEYIFKPSCVPLMRCGGCCNSEGLQCVPTEESNITMQIMRITVPLSQGPKPVTISFLQHNKCECRPKKD ?
[A] no binding

[Q] What value of measured binding result is listed for 23-15 (ligand) AHYNTEILKSIDNEWRKTQCMPREVCIDVGKEYPDEIEYIFKPPCVSVYRCGGCCNSEGLQCVPTEESNITMQIMRITVPLSQGPKPVTISFANHTSCRCMSKLD ?
[A] no binding

[Q] What value of measured binding result is listed for 42-6 (ligand) AHYNTEILKFMDVYQRSYCHPREVCIDVGKEFGVATNTFFKPPCVSVYRCGGCCNDEGLECMNTSTSYLSKTLFEIKPHQGQHIGEMSFANHTSCRCMSKLD ?
[A] no binding
